- Test system: pERK in AsPC-1 cells
- Assay Text: ERK phosphorylation cell assay, AsPC-1
- Assay type: cell-based
- Experimental Conditions: AsPC-1 cells; read-out: pERK AsPC-1_IC50
Measurement Type: IC50

{"Molecule": "C[C@@]1(O)CCCN(c2nc(OC[C@@]34CCCN3C[C@H](F)C4)nc3c(F)c4c(cc23)NCCOCCc2c(F)ccc3cccc-4c23)C1 (single isomer, unassigned) [Example 52B]", "IC50": "> 10 µM"}
{"Molecule": "C=C1CN2CC(F)(F)CC2(COc2nc(N3CCC[C@@](C)(O)C3)c3cc4c(c(F)c3n2)-c2cc(O)cc3ccc(F)c(c23)CCCCCN4)C1 (single isomer, unassigned) [Example 57B]", "IC50": "> 10 µM"}
{"Molecule": "C[C@@]1(O)CCCN(c2nc(OCC3(N4CCOCC4)CC3)nc3c(F)c4c(cc23)NCCCCCc2c(F)ccc3cc(O)cc-4c23)C1 (single isomer, unassigned) [Example 33B]", "IC50": "> 10 µM"}

// lookup IC50 for CC1(O)CCCN(c2nc(OCC34CCC(CC3)CO4)nc3c(F)c4c(cc23)NCCCCCc2c(F)ccc3cc(O)cc-4c23)C1 (stereo not shown) [Example 18B] > 10 µM

---

- Tested on: AGS cells
- Assay Text: 3D cell proliferation assay (CellTiter-Glo 3D), AGS
- Type: cell-based
- Experimental Conditions: 5 days, read-out: 3D Proliferation Inhibition AGS_IC50
Measurement Type: IC50 (nM)

{"Molecule": "O=C1CCCCCc2c(F)ccc3cc(O)cc(c23)-c2c(cc3c(N4CC5CCC(C4)N5)nc(OC[C@@]45CCCN4C[C@H](F)C5)nc3c2F)N1 [Example 9B]", "Unit Annotation": "nM", "IC50": 93}
{"Molecule": "C=C1CN2CCCC2(COc2nc(N3CCC[C@@](C)(O)C3)c3cc4c(c(F)c3n2)-c2cc(O)cc3ccc(F)c(c23)CCCCCN4C)C1 (single isomer, unassigned) [Example 22A]", "Unit Annotation": "nM", "IC50": 90}
{"Molecule": "CN1CCCCCc2c(F)ccc3cc(O)cc(c23)-c2c1cc1c(N3CCC[C@@](C)(O)C3)nc(OC[C@@]34CCCN3C[C@H](F)C4)nc1c2F (single isomer, unassigned) [Example 6A]", "Unit Annotation": "nM", "IC50": 127}
{"Molecule": "C=C1CN2CCC[C@@]2(COc2nc(N3CCC[C@@](C)(O)C3)c3cc4c(c(F)c3n2)-c2cc(O)cc3ccc(F)c(c23)CCOCCN4)C1 (single isomer, unassigned) [Example 42B]", "Unit Annotation": "nM", "IC50": 61}
